Where these numbers come from: the supplement of paper PMC4932681

System: T-47D Tam2
assay-comment: viability inhibition at highest dose (% inhibition); higher = more growth inhibition
experimental-setup: 4-OH-tamoxifen in medium 1 µM; 72 h
Where a name gives a salt, the structure may show the parent alone.
So basically, if viability inhibition at highest dose comes in under 30 it's Fulfilled, and if it's 30 or more it's Not fulfilled.

The following compounds have reported results that may help.
compound	label-class
C=CC(=O)Nc1cc2c(Nc3ccc(F)c(Cl)c3)ncnc2cc1OCCCN1CCOCC1 [Canertinib] (drug 10000 nM)	Not fulfilled
S=P(N1CC1)(N1CC1)N1CC1 [Thio-TEPA] (drug 100000 nM)	Fulfilled
CN1CCN(CCOc2cc(OC3CCOCC3)c3c(Nc4c(Cl)ccc5c4OCO5)ncnc3c2)CC1 [Saracatinib] (drug 10000 nM)	Fulfilled
Cc1ccc([N+](=O)[O-])cc1S(=O)(=O)N(C)/N=C/c1cnc2ccc(Br)cn12 [PIK-75 (HCl)] (drug 10000 nM)	Not fulfilled
O=C1CCC(N2C(=O)c3ccccc3C2=O)C(=O)N1 (stereo not given) [Thalidomide] (drug 10000 nM)	Fulfilled
COc1cc2c(N3CCN(C(=O)Nc4ccc(OC(C)C)cc4)CC3)ncnc2cc1OCCCN1CCCCC1 [Tandutinib] (drug 1000 nM)	Fulfilled
COc1cc2c(Oc3ccc(NC(=O)C4(C(=O)Nc5ccc(F)cc5)CC4)cc3F)ccnc2cc1OCCCN1CCOCC1 [Foretinib (Foretinib)] (drug 1000 nM)	Fulfilled
O=P(O)(NCCCl)NCCCl [Ifosfamide mustard] (drug 10000 nM)	Fulfilled
C[C@@]1(C(=O)Nc2ccc(F)nc2)CCCN1c1nc(Nc2cc(C3CC3)n[nH]2)c2cccn2n1 (drug 10000 nM)	Not fulfilled

Okay, next one:
For CC(=O)c1c(C)c2cnc(Nc3ccc(N4CCNCC4)cn3)nc2n(C2CCCC2)c1=O (drug 10000 nM) , is the recorded viability inhibition at highest dose below the cut-off of 30?
Fulfilled
